Target: UniProt:P56817
Sequence (P56817 46-501): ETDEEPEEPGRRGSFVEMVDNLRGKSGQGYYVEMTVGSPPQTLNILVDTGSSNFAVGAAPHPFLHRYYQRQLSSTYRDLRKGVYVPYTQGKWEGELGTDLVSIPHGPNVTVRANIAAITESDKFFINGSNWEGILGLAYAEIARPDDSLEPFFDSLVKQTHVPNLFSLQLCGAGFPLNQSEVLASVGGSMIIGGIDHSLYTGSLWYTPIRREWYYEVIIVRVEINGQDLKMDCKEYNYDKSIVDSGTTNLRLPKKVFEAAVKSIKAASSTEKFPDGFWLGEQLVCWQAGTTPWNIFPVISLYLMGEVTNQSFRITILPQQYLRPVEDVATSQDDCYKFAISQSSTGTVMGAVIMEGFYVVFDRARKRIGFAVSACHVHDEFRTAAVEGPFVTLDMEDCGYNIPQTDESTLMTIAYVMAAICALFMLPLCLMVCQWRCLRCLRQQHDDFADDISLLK
Assay: CEREP BACE Inhibition Assay
Format: biochemical
Settings: 0.3 μM; percent inhibition of the control activity; recombinant enzyme
measuredProperty: inhibition at 0.3 µM (%)

compound	observedMeasurement
COC(=O)[C@@H](COC(C)(C)C)NC(=O)CC[C@@H](C1CCCCC1)N1Cc2cc(Oc3ccccc3)ncc2N=C1N	94
NC1=Nc2cnc(Oc3ccccc3)cc2CN1[C@@H](CCC(=O)N(CCO)C1CCCCC1)C1CCCCC1	91
CC(C)(C)OC[C@H](CN1CCOCC1)NC(=O)CC[C@@H](C1CCCCC1)N1Cc2cc(Oc3ccccc3)ncc2N=C1N	55
NC1=Nc2cnc(Oc3ccccc3)cc2CN1[C@@H](CCC(=O)N(CC(=O)O)C1CCCCC1)C1CCCCC1	100
CC(C)[C@H](CCC(=O)N(CC(=O)O)C1CCCCC1)N1Cc2cc(Oc3ccccc3)ncc2N=C1N	99
CC(C)(C)OC[C@H](NC(=O)CC[C@@H](C1CCCCC1)N1Cc2cc(Oc3ccccc3)ncc2N=C1N)C(=O)O	65
CC(C)[C@H](CCC(=O)N[C@@H](COC(C)(C)C)c1nnn[nH]1)N1Cc2cc(Oc3ccccc3)ncc2N=C1N	96
CN(C(=O)CC[C@@H](C1CCOCC1)N1Cc2cc(Oc3ccccc3)ncc2N=C1N)[C@H](COC(C)(C)C)C(=O)O	91
NC1=Nc2cnc(Oc3ccccc3)cc2CN1[C@@H](CCC(=O)N(Cc1ccncc1)C1CCCCC1)C1CCCCC1	88
CN(C(=O)CC[C@@H](C1CCCCC1)N1Cc2cc(Oc3ccccc3)ncc2N=C1N)[C@@H](COC(C)(C)C)C(=O)O	96
NC1=Nc2cnc(Oc3ccccc3)cc2CN1[C@@H](CCC(=O)N(Cc1ncc[nH]1)C1CCCCC1)C1CCCCC1	91
CC(CO)NC(=O)C(COC(C)(C)C)NC(=O)CCC(C1CCCCC1)N1Cc2cc(Oc3ccccc3)ncc2N=C1N (stereo not drawn)	95
CC(C)[C@H](CCC(=O)N[C@@H](COC(C)(C)C)C(=O)O)N1Cc2cc(Oc3ccccc3)ncc2N=C1N	66
CN(C(=O)CC[C@@H](C1CCOCC1)N1Cc2cc(Oc3ccccc3)ncc2N=C1N)[C@@H](COCc1ccccc1)C(=O)O	57
CC(C)[C@H](CCC(=O)N[C@H](COCc1ccccc1)C(=O)O)N1Cc2cc(Oc3ccccc3)ncc2N=C1N	97
NC1=Nc2cnc(Oc3ccccc3)cc2CN1[C@@H](CCC(=O)N(Cc1nnc[nH]1)C1CCCCC1)C1CCCCC1	97
COC(=O)[C@H](COC(C)(C)C)NC(=O)CC[C@@H](C1CCCCC1)N1Cc2cc(Oc3ccccc3)ncc2N=C1N	81
COC(=O)[C@H](COC(C)(C)C)NC(=O)CC[C@@H](C(C)C)N1Cc2cc(Oc3ccccc3)ncc2N=C1N	57
COC(=O)[C@@H](COC(C)(C)C)NC(=O)CC[C@@H](C(C)C)N1Cc2cc(Oc3ccccc3)ncc2N=C1N	84
CC(C)(C)OC[C@@H](NC(=O)CC[C@@H](C1CCCCC1)N1Cc2cc(Oc3ccccc3)ncc2N=C1N)C(=O)N1CCOCC1	96
COC(=O)[C@@H](COCc1ccccc1)NC(=O)CC[C@@H](C(C)C)N1Cc2cc(Oc3ccccc3)ncc2N=C1N	95
NC1=Nc2cnc(Oc3ccccc3)cc2CN1[C@@H](CCC(=O)N1CCCC[C@H]1CC(=O)O)C1CCCCC1	94
COC(=O)[C@H](COC(C)(C)C)N(C)C(=O)CC[C@@H](C1CCCCC1)N1Cc2cc(Oc3ccccc3)ncc2N=C1N	91
CC(C)(C)OC[C@H](CO)NC(=O)CC[C@@H](C1CCCCC1)N1Cc2cc(Oc3ccccc3)ccc2N=C1N	87
C[C@@H](CO)NC(=O)[C@@H](COC(C)(C)C)NC(=O)CC[C@@H](C1CCCCC1)N1Cc2cc(Oc3ccccc3)ncc2N=C1N	94
NC1=Nc2cnc(Oc3ccccc3)cc2CN1[C@@H](CCC(=O)N(Cc1nnn[nH]1)C1CCCCC1)C1CCCCC1	78
CC(C)[C@H](CCC(=O)N[C@@H](COC(C)(C)C)c1nnnn1Cc1ccccc1)N1Cc2cc(Oc3ccccc3)ncc2N=C1N	86
